System: MS2 coat protein
Assay: apparent KD of MS2 coat protein; designed switch direction (-1 OFF switch, 1 ON switch): -1; higher = weaker reporter binding
Conditions: input ligand: microRNA oligo, concentration not stated
Criterion: apparent KD of MS2 coat protein meeting or surpassing 30 nM. Met: MET. Not met: NOT MET.

# residue-codes, cat
measured = [
    ("GUCAGCUCGUCAGGAUAUACAUGAGGAUCACCCAUGUGAUCAAUAGCAGCUUCGGCUGCAUUAAUGUAGAAGGGACGAGCUGAC [ENG2/5-B1] (Eterna round: R96, puzzle: Exclusion NG 2)", "MET"),
    ("ACAUGAGGAUCACCCAUGUCUGGCUGGUCUGCUCCGGUUGUUGAGGAUAUAGUCCGGUGUUCGCGCUAGAAGGUGAGGGCUGGA [Aenatbe mod 40] (Eterna round: R96, puzzle: Exclusion NG 3)", "MET"),
    ("AUCAGCUCGUGAGGAUAUACAUGCGUGCUUCGGCACGAAUUUAAGAUCACAUGAGGAUCACCCAUGUAGAAGGCACGAGCUGAU [ENG2/3-A3] (Eterna round: R96, puzzle: Exclusion NG 2)", "MET"),
    ("GUCAGCUCGUCAGGAUAUACAUGAUAGAUCGAUUAAUUAAUUAAUUUAACAUGAGGAUCACCCAUGUAGAAGGGACGAGCUGAC [ENG2/1-B1] (Eterna round: R96, puzzle: Exclusion NG 2)", "MET"),
    ("UUCUUUAUACGAGGAUAUCAUACAUGAGGAUCACCCAUGUGGCUGGGUCUGUUUUUAUAUAAUAUUGAGAAGGCGUUUUUCUAU [JR_ExcNG2_Sub073] (Eterna round: R96, puzzle: Exclusion NG 2)", "MET"),
    ("AAGAAGAUCAAAGGAUAUGGAGCUGAAACGGAGCUAGAAGGUUGUCUAGUUUAACAUGAGGAUCACCCAUGUAGGUACCUCUAA [AK ExNG1-V2-1] (Eterna round: R96, puzzle: Exclusion NG 1)", "MET"),
    ("AAAGGACGAGGAUAUACAUGAGGAUCACCCAUGUAAGAAGCAUAAUAAAAUAACUUAUGUAGAAGGCGUCCAAA [Mat - Exclusion 3 - Eli mod - D94] (Eterna round: R96, puzzle: Exclusion 3)", "NOT MET"),
    ("GGCGACCUAGGAUAUACAUGAGGAUCACCCAUGUUUAUCUAUUAGAUGAAGACGGGUUGUAGAAGGAGGAUAUU [JL Geriin mod] (Eterna round: R96, puzzle: Exclusion 3)", "NOT MET"),
    ("UAACGGGUUUCUUCGUUUACAACAUGAGGAUCACCCAUGUUUGAGGAUAUCCACUAAGCUCUUCAGGAGAAGGCAAACAUAAUG [Teanarxe] (Eterna round: R96, puzzle: Exclusion NG 3)", "NOT MET"),
    ("GCAGCUAGUUCAGGAUAUCAGCACGUUUAGUGCUGAGAAGGGAACAUGAGGAUCACCCAUGUGAUCAAUGCUGCAAUUUUAAUU [ENG1/12-A2] (Eterna round: R96, puzzle: Exclusion NG 1)", "MET"),
    ("AGUACUAUCACGAAAGUGAUAGUACAACGAGCUUGUGAAACAUGAGGAUCACCCAUGUCCUCAUGAGUUCGUCUUAU [JL turnoff v2 67] (Eterna round: R96, puzzle: Sensor v2, turn-off variant 2)", "MET"),
    ("UUGUUAUAUGUAGGAUAUGCAUAUUAUUAUUAUGCAGAAGGACAUGAGGAUCACCCAUGUAUGUUGUUGUUAUAUAUUAUAUAU [Title] (Eterna round: R96, puzzle: Exclusion NG 1)", "NOT MET"),
    ("UGUUGUCGCGCAGGAUAUGCAUGAGGAUCACCCAUGCAAUUAGAGUUAACAUGAGGAUCACCCAUGUAGAAGGGCGGGACAACU [pwkr exNG2 2xF5 1xFMN.5] (Eterna round: R96, puzzle: Exclusion NG 2)", "NOT MET"),
    ("GCCGGUCAUGUAGGAUAUGGCCGGCGGUGCCGGCCAGAAGGACAUGAGGAUCACCCAUGUGCCGGCCUUUGGCCGGCACCCGGC (Eterna round: R96, puzzle: Exclusion NG 1)", "NOT MET"),
    ("UAUAUAUAGUAAGGAUAUGUAUAUAUUUUACAAACAGAAGGUACUGACAUGAGGAUCACCCAUGUUUUAGUGUGGGCAUGUAGA [JMF's solution 68] (Eterna round: R96, puzzle: Exclusion NG 1)", "MET"),
    ("AUUGUUUAUGUAGGAUAUGCCUGGCGUGCCUUUGCAGAAGGACAUGAGGAUCACCCAUGUAACAUGAGGCUCACCCAUGUCGCU [salish99_ExNG1_r04_112] (Eterna round: R96, puzzle: Exclusion NG 1)", "MET"),
    ("AAUCAUCAUGUAGGAUAUGCGUGGCGAAGCUAUGCAGAAGGACAUGAGGAUCACCCAUGUUCUUGCGUCUGCGUACAGAUGCAA [Mat - Exclusion NG 1 - Mod of JL - D72] (Eterna round: R96, puzzle: Exclusion NG 1)", "MET"),
    ("UACAUGAGGAUCACCCAUGUUUUGUCGUGUAUGGUAUUUAUCUAGGAUAUCAUUUUAUUUAGGUAUGAGAAGGAGAAUAUUAAU [JMF's solution 93] (Eterna round: R96, puzzle: Exclusion NG 3)", "NOT MET"),
]

* * *

System: MS2 coat protein
Assay: apparent KD of MS2 coat protein; higher = weaker reporter binding
Settings: Eterna round: R107; input ligand: tryptophan 2.4 mM
readout-name: apparent KD of MS2 coat protein (nM)

# residue-codes, readout-name, readout-unit, value-observed
data = [
    ("GUUAUAGACGGAAGGAGCGCGACCACAUGAGGAUCACCCAUGUAUUGUGUUGGUAAUAGGUCGCAGGUAGGUCGCCGGUUAAUGA [#04 Same State - Arginine B]", "apparent KD of MS2 coat protein", "nM", 31),
    ("UGCCGAGACGUGGAUUACCCAUGUACCGAAGGAGCGCCCGAAAGGGCAGGUAGGUCGCGGAGGACAUGAGGAUCACCCAUGUCGA", "apparent KD of MS2 coat protein", "nM", 47),
    ("GGGCCUGUAAGCAGACCCACAGCGGGUGAUACCAGCAAUAAAACUUGCCCUUGGCAGCACACAGCUACAUGAGGAUCACCCAUGU [Rausis]", "apparent KD of MS2 coat protein", "nM", 82.4),
    ("GGACUAACUCGAAGGAGCGACACGCAGAAACUGCAAUUUCCUCCACACGAGGAUCACCCGUGUCAGGUAGGUCGCGAGUUAGUCG [ArgBX 29]", "apparent KD of MS2 coat protein", "nM", 19.8),
]

* * *

System: MS2 coat protein
Assay: apparent KD of MS2 coat protein; designed switch direction (-1 OFF switch, 1 ON switch): 1; higher = weaker reporter binding
Details: input ligand: none
Would you please tag the item true when its apparent KD of MS2 coat protein is 70 nM or above, and false when it is below?

# residue-codes, cat
records = [
    ("GCUGGAAACCACAUGAGGAUCACCCAUGUUCCGGAAACGGCGCAGGAUAUCUGUCCGAAAAGGUCAGAGAAGGGUGAAACCAGC [Fiskers NG3ss - 80] (Eterna round: R96, puzzle: Same State NG 3)", "true"),
    ("GCUGGAAACCACAUGAGGAUCACCCAUGUUCCGGAAACGGCACAGGAUAUCUGUCCGAAAAGGUCAGAGAAGGGUGAAACCAGC [Fiskers NG3ss - 83] (Eterna round: R96, puzzle: Same State NG 3)", "true"),
    ("GCUAGGAAAGAAGCCAACAUGAGGAUCACCCAUGUAUGUUGGUAGGAUAUCGUUUGCAAAGCAAACGAGAAGGGCUAACCUAGC [Mat - Same State NG 3 - JL Mod - D73] (Eterna round: R96, puzzle: Same State NG 3)", "true"),
    ("AGAUGUUAAUUAGGAUAUGGACACAUGAGGAUCACCCAUGUAACGUAGAUACGAUGUGGUCAAGUCUAGAAGGGAUAGCUAACA [SameState NG2 #76] (Eterna round: R96, puzzle: Same State NG 2)", "false"),
    ("AUACAUAUCAGAGGAUAUCACGUCGAUUAGACGUGAGAAGGCUGAUCACACAUGAAUAUUAAUACAUGAGGAUCACCCAUGUAU [SSNG1/14-A2] (Eterna round: R96, puzzle: Same State NG 1)", "false"),
    ("ACAUGAGGAUCACCCAUGUAUGCUCAGGAAACUGUGCAUCGUGAGGAUAUGGAUCCUAAUUGGAUCCAGAAGGCAUGUAUUAUU [Fiskers NG3ss - 27] (Eterna round: R96, puzzle: Same State NG 3)", "true"),
    ("UUAAUAAAUCAAGGAUAUCACGUCGAUUAGACGUGAGAAGGUGAUCAUAACAUGAGGAUCACCCAUGUAUUACAUGAAUAUUAA [SSNG1/1-B2] (Eterna round: R96, puzzle: Same State NG 1)", "true"),
    ("AAAAAACAUGAGGAUCACCCAUGUCAAAAGACGUGAGGAUAUGUACAGACUUCGGUCUGUACAGAAGGCACGAAAA [SS1 - 1037] (Eterna round: R96, puzzle: Same State 1)", "false"),
    ("UGUUGUUAACUAGGAUAUGGUCACAUGAGGAUCACCCAUGUAAUGUCGAUGCUAUGUGGAUUUGAUCAGAAGGAGUGGUUAACA [SameState NG2 #99] (Eterna round: R96, puzzle: Same State NG 2)", "false"),
    ("GCUCGAUGAGCUGUUUACAUGAGGAUCACCCAUGUAAAUGGGCAGGAUAUUUACGUGCUUUGUGUAGAGAAGGGCCCAUCGAGC [SameState NG3 #76] (Eterna round: R96, puzzle: Same State NG 3)", "true"),
    ("AAAAUAAAAUAAAAGGAUAUAAAAUAAAAUACAUGAGGAUCACCCAUGUAUAAAAUAAAAAAAUAAAAGAAGGAAUAAAAAUAAA [SS2 504: MS2 4] (Eterna round: R96, puzzle: Same State 2)", "false"),
    ("GGACGUCAAUCUCCUAAUUAAACAUGAGGAUCACCCAUGUCACAGGAUAUGAGUCCGAUUAGGACUCAGAAGGGUGAGACGUCC [Fiskers NG3ss - 49] (Eterna round: R96, puzzle: Same State NG 3)", "false"),
    ("CGUCGUUUGAUAGGAUAUCGCUUUACAUGCGGAUCACCCAUGUUUACCACGCUGGUUUUUCUUUCCGAGAAGGAUUCUGAUGUU [salish99_SSNG02_r04_026] (Eterna round: R96, puzzle: Same State NG 2)", "true"),
    ("UUGAGGAAUUAAGGAUAUUGAGUACAUAUGUUUAACAUGAGGAUCACCCAUGUGGGUUGCGGUAUCGAGAAGGUAAAUUACUAC [salish99_SSNG2_r04_801] (Eterna round: R96, puzzle: Same State NG 2)", "true"),
    ("GGUAUCGACGCAGGAUAUGCUAUCCUUUGGGUAGCAGAAGGGUGAACAUGAGGAUCACCCAUGUGGGUGCCAGGGCGUGAGCCC [JL SSNG1 1.82] (Eterna round: R96, puzzle: Same State NG 1)", "true"),
    ("GGAAUAUGAUGUUACAUGAGGAUCACCCAUGUAGUGAUAACUAAGGAUAUCUGUUAAGAUAACUAAGAGAAGGUAGGAUCAUAA [AK SSNG3-V2-8.3] (Eterna round: R96, puzzle: Same State NG 3)", "false"),
    ("GGUGGGUUACUACCAACACAUGAGGAUCACCCAUGUUUUGGGAAGGAUAUGGUACCUAUUUGGUACCAGAAGGUCCCGUUGGUG [salish99_SSNG3_r04_705] (Eterna round: R96, puzzle: Same State NG 3)", "false"),
]

Origin of the recorded values: the supplement of paper PMC9170038
